FYI, the data here is from patent US12319655B2.

Molecular target: C-Raf kinase (SEQ. ID NO: 3) (Homo sapiens (Human), UniProt P04049, Y340D/Y341D)
Sequence (P04049 307-648 Y340D/Y341D): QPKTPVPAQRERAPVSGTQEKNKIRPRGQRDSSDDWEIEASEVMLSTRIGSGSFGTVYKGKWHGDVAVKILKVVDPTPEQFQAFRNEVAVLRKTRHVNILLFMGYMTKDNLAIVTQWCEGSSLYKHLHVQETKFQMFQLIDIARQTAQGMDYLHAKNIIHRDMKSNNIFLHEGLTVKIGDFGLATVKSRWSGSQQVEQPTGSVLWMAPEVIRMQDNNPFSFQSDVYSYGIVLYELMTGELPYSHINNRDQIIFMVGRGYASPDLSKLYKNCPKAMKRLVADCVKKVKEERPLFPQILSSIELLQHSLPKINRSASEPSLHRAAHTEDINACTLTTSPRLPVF
Experiment: Biochemical Assay for C-Raf (1)
Conditions: Table J, assay version (1); read-out: CRAF (1) IC50
pIC50: −log10 of the molar value.
Reported pIC50 values for a set of compounds

COMPOUND | pIC50
CC(=O)Nc1cc(-c2cccc(-c3cc(NC(=O)c4ccnc(C(C)(C)C#N)c4)ccc3C)c2)ncn1 [Example 79] | ≥ 7.00
Cc1ccc(NC(=O)c2ccnc(C(F)(F)F)c2)cc1-c1cncc(-c2ccnc(NC=O)c2)n1 [Example 123] | ≥ 7.00
Cc1ncc(NC(=O)c2cnn(C(C)(C)C)c2)cc1-c1ccnc(-c2ccnc(NC(=O)C3CC3)c2)n1 [Example 283] | ≥ 7.00
CNC(=O)c1cc(-c2cnnc(-c3cc(NC(=O)c4ccc(F)c(C(F)(F)F)c4)ccc3C)c2)ccn1 [Example 329] | ≥ 7.00
CC(=O)Nc1cc(-c2cc(-c3cc(NC(=O)c4ccnc(C(F)(F)F)c4)ccc3C)cn(CCO)c2=O)ccn1 [Example 102] | 6.30 to 7.00
Cc1ncc(NC(=O)c2ccnc(C3(C#N)CC3)c2)cc1-c1nccc(-c2ccnc(NC(=O)C3CC3)c2)n1 [Example 293] | ≥ 7.00
Cc1ncc(NC(=O)C2CCN(C)C2)cc1-c1nccc(-c2ccnc(NC(=O)C3CC3)c2)n1 (stereo not shown) [Example 334] | 5.00 to 6.00
CC(=O)Nc1cc(-c2cncc(-c3cc(NC(=O)c4cc(C(F)(F)F)ccn4)ccc3C)n2)ccn1 [Example 124] | ≥ 7.00
Cc1ccc(NC(=O)c2ccnc(C(F)(F)F)c2)cc1-c1ccnc(-c2ccnc(NC(=O)CC#N)c2)n1 [Example 144] | ≥ 7.00
Cc1ccc(NC(=O)c2ccnc(C(C)(C)C#N)c2)cc1-c1cccc(-c2cc(NC(=O)C3(F)CC3)ncn2)c1 [Example 200] | ≥ 7.00
CNC(=O)c1cc(-c2cnnc(-c3cc(NC(=O)CCC(C)(C)C#N)cnc3C)c2)ccn1 [Example 333] | 5.00 to 6.00
CC(=O)Nc1cc(-c2cc(-c3cc(NC(=O)c4ccnc(C(C)(C)C#N)c4)ccc3C)cn(C)c2=O)ccn1 [Example 113] | ≥ 7.00
CC(=O)Nc1cc(-c2nccc(-c3cc(NC(=O)c4ccnc(C(C)(C)C#N)c4)cnc3C)n2)ccn1 [Example 195] | ≥ 7.00
